test: Cell viability LC50, cell line not given in Table I; assay type: cell-based; conditions: human
assay_readout: CC50 at 30 min (µM)
Write the answer as a number in µM, unit excluded.

Prompt: Reported CC50 at 30 min for Ac-AAAAAAWAAAAGPNGLYLKKKLLKKLLKLLGNPGLKLYKKLLKKLLLKLGNPGLLKLYKKLLKKLLKLL-OH [SGP, small globular protein] : what is it?
Completion: 4
